These measurements were taken from the supplement of paper PMC10307832.

system: NCI-H2085; assay: relative viability (nuclei count vs DMSO), 5 days (fraction); higher = more cells survive; conditions: first compound 4 µM
Doc: threshold 0.6 (exclusive). Items with relative viability beneath it return yes; others return no.

# COMPOUND, ASSIGNED LABEL
data = [
    ("Clc1ccc(Nc2nnc(Cc3ccncc3)c3ccccc23)cc1 [Vatalanib] + CCNC(=O)c1noc(-c2cc(C(C)C)c(O)cc2O)c1-c1ccc(CN2CCOCC2)cc1 [Luminespib] (partner 0.01 µM)", "yes"),
    ("C[C@@H]1CN(CC(=O)Nc2ccc3c(c2)Cc2cccc(-c4cc(=O)cc(N5CCOCC5)o4)c2S3)C[C@H](C)O1 + O=C(CCCCCCC(=O)Nc1ccccc1)NO [Vorinostat] (partner 1 µM)", "no"),
    ("Clc1ccc(Nc2nnc(Cc3ccncc3)c3ccccc23)cc1 [Vatalanib] + O=C(c1cc(Cc2n[nH]c(=O)c3ccccc23)ccc1F)N1CCN(C(=O)C2CC2)CC1 [Olaparib] (partner 8 µM)", "no"),
    ("C[C@@H]1CN(CC(=O)Nc2ccc3c(c2)Cc2cccc(-c4cc(=O)cc(N5CCOCC5)o4)c2S3)C[C@H](C)O1 + COc1cccc2cc(-c3nc([C@H]4CC[C@H](C(=O)O)CC4)n4ncnc(N)c34)[nH]c12 [OSI-027] (partner 0.5 µM)", "yes"),
    ("COc1cc(N2CCC(C(N)=O)CC2)ccc1Nc1nc(N)c(Cl)c(Nc2ccccc2S(=O)(=O)C(C)C)n1 [HG-5-88-01] + CC(=O)c1c(C)c2cnc(Nc3ccc(N4CCNCC4)cn3)nc2n(C2CCCC2)c1=O [Palbociclib] (partner 0.5 µM)", "yes"),
    ("COc1cc(N2CCC(C(N)=O)CC2)ccc1Nc1nc(N)c(Cl)c(Nc2ccccc2S(=O)(=O)C(C)C)n1 [HG-5-88-01] + C[C@@H](Oc1cc(-c2cnn(C3CCNCC3)c2)cnc1N)c1c(Cl)ccc(F)c1Cl [Crizotinib] (partner 1 µM)", "no"),
    ("Clc1ccc(Nc2nnc(Cc3ccncc3)c3ccccc23)cc1 [Vatalanib] + Cc1nc(NC(=O)N2CCC[C@H]2C(N)=O)sc1-c1ccnc(C(C)(C)C(F)(F)F)c1 [Alpelisib] (partner 2 µM)", "no"),
    ("C[C@@H]1CN(CC(=O)Nc2ccc3c(c2)Cc2cccc(-c4cc(=O)cc(N5CCOCC5)o4)c2S3)C[C@H](C)O1 + CC(=O)Nc1cccc(-n2c(=O)n(C3CC3)c(=O)c3c(Nc4ccc(I)cc4F)n(C)c(=O)c(C)c32)c1 [Trametinib] (partner 0.02 µM)", "yes"),
    ("C[C@@H]1CN(CC(=O)Nc2ccc3c(c2)Cc2cccc(-c4cc(=O)cc(N5CCOCC5)o4)c2S3)C[C@H](C)O1 + NC(=O)Nc1cc(-c2cccc(F)c2)sc1C(=O)N[C@H]1CCCNC1 [AZD7762] (partner 0.2 µM)", "no"),
]
